// data source = PubChem BioAssay (NCI)

test-summary: NCI Yeast Anticancer Drug Screen. Data for the bub3 strain (AID 167)
measurement-setup: S. cerevisiae bub3 mutant strain, at 50.0 µM, stronger effect = higher value
About 79,000 compounds went through this panel and 15% of them were active in at least one assay; those are over-represented in the sample as a whole.
property-label: growth inhibition (%)
All answers are understood in %, so give the number only.

Looking for the measured growth inhibition of `c1c(-c2cc(C3CC3)[nH]n2)n[nH]c1C1CC1` , can you help?
1.8

Looking for the measured growth inhibition of CC1CCCCN1C(=S)Nc1ccc(S(=O)(=O)N2CCCCC2)cc1 (configuration not stated) , can you help?
-19.1

Looking for the measured growth inhibition of COC(=O)C(C)Oc1ccc(OC#N)cc1 (configuration not stated) , can you help?
6.25

Looking for the measured growth inhibition of CC1NC(=O)NC1CCCCCC(=O)O (configuration not stated) , can you help?
4.6

Looking for the measured growth inhibition of `O=C1c2ccccc2C(=O)N1OCc1ccccc1` , can you help?
-20

Looking for the measured growth inhibition of `CCS(=O)(=O)c1cc(=O)[nH]c(=O)[nH]1` , can you help?
-1.45

Looking for the measured growth inhibition of `N/N=C(/Cc1ccccc1)NNC(N)=S` , can you help?
-12

Looking for the measured growth inhibition of CN1C(=O)CN2CCc3ccccc3C2c2cc(Cl)ccc21 (configuration not stated) , can you help?
48

Looking for the measured growth inhibition of `Cc1ccccc1N=C(c1ccccc1)C1C(=O)c2ccccc2C1=O` , can you help?
49.2

Looking for the measured growth inhibition of `O=[N+]([O-])c1ccc(-c2ncc(-c3ccc(Br)cc3)o2)cc1` , can you help?
17.2

Looking for the measured growth inhibition of `O=[N+]([O-])c1ccc(N=Nc2ccccc2)cc1` , can you help?
-5.2

Looking for the measured growth inhibition of `CCCCCCCCCCCCCC(=O)Oc1ccc[nH]c1=O` , can you help?
0.65
